- ASSAY EXPLANATION: amyloid nucleation score (Sup35N fusion, yeast selection) (log enrichment); library NNK2; higher = more nucleation; inactive = no reads after selection;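 also: zero at mode of non-aggregating sequences after 7 days selection at 30°C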
Dear colleague, classification is by amyloid nucleation score, with ranges listed here: interval 1 = under -0.2, interval 2 = from -0.2 up to 0.9, interval 3 = 0.9 and over

> print(dat)
     biopolymer.sequence  label.value
 1  IKVSFRRTGGLLHLCKWLTC   interval 1
 2        VLVSLFLPLENYFG   interval 1
 3             YIAILFYMC   interval 3
 4  SMDGSQDCTTKLNWSFHSVF   interval 3
 5  CILEHRSEQWYCYLWPARRG   interval 3
 6  ENEWCCLWGRAKRVAGVQEV   interval 2
 7  HKLFHLDSVQVYKQYGKEAI   interval 3
 8       SCVVLNSYQCTAKRY   interval 2
 9   LFGGRGKRVRLKVLLTQRF   interval 1
10  GWVMVVPFPCMIVVVSAVGS   interval 2
11  FGFIYGTRVEGLSIVSRQSR   interval 3
12  SKFNFIYCAGDQLSYRYRLG   interval 1
13  ASNAWDRLGSVPGFSRGRLR   interval 1
14  GGFRWSIQEHWYCTNAYSTD   interval 2
15    HVVTRVSFESVFCLFTYF   interval 3
16    CVLTRVFETTSCVSIHLF   interval 1
17  MTFVHVSNMWDRNEGICGDE   interval 1
18            DDCVPQWEYK   interval 2
19  WYKKATNSVLANVGQDFVVK   interval 1
20     DAWYMDFLSCACWIHWR   interval 2
21           VYPVSPIMKGV   interval 2
22  GRVISCVGLTAFNKAVGSCR   interval 2
23          INQKDRRGNPYY   interval 2
24  CAMDCSSVQGGSTITKCHTM   interval 2
25  SLYLSWYDIFLMYGCWNVVR   interval 2
26  SSYRSEGSAYGMPYYPVSAS   interval 3
27            LSPRSGNRTP   interval 1

---

- ASSAY EXPLANATION: amyloid nucleation score (Sup35N fusion, yeast selection) (log enrichment); library NNK2; higher = more nucleation; inactive = no reads after selection
Dear colleague, classification is by amyloid nucleation score, with ranges listed here: low bin: < -0.4; mid bin: ≥ -0.4 and < 0.2; high bin: ≥ 0.2

> print(dat)
               substance  label.value
 1  HFDSYNRNSMSSRPSVGILS      low bin
 2                DPAELQ      mid bin
 3          EFHVRGDSDGYC      low bin
 4  EVLTVYFARRFVESSGRGTG     high bin
 5    SGWELRQITFGMTDCIGG      mid bin
 6            HGTIFTIYVC      low bin
 7  CFCWLLNSNLKGNLSRGRHL      mid bin
 8  TIGEVYGYLRSWIYWGSEST      mid bin
 9    LKDVGPYQRVRRGTVRYA     high bin
10        KSPFVICGKRDVRK      low bin
11             GYFKRHLRM      low bin
12                GLPPVC     high bin
13        GLFSSGRFVSADSM      mid bin
14  EDVYKRTQRDWDCLILYQRY      low bin
15  CNMFCFDCCLWFGGMRISST     high bin
16  AEHYECPLCERIETAGCKLV     high bin

---

- ASSAY EXPLANATION: amyloid nucleation score (Sup35N fusion, yeast selection) (log enrichment); library NNK2; higher = more nucleation; inactive = no reads after selection
Reported amyloid nucleation score values follow for various sequences
REPORTED PROPERTY: amyloid nucleation score

> print(dat)
    biopolymer.sequence  numeric.value
1  TMFASHFCWYALYYVCILNF          0.066
2    PQRLWISISAHTLKFPHL           3.77
3  VFEAIMVYSFRRYFPPYGAF           2.62
4  KTCSACVSIKICLLNDGGNW           9.63

---

- ASSAY EXPLANATION: amyloid nucleation score (Sup35N fusion, yeast selection) (log enrichment); library NNK1; higher = more nucleation; inactive = no reads after selection
REPORTED PROPERTY: amyloid nucleation score

> print(dat)
    biopolymer.sequence    result
1  HTLDSISGSCGPLIAIVDFQ  inactive
2        NFRHFILVYLMPFT  inactive
3         KGMYISWIVAVCS     0.411
4  KCLSLNCMPYTFLLSRYYPY  inactive

---

- ASSAY EXPLANATION: amyloid nucleation score (Sup35N fusion, yeast selection) (log enrichment); library NNK1; higher = more nucleation; inactive = no reads after selection
REPORTED PROPERTY: amyloid nucleation score

> print(dat)
    biopolymer.sequence         reported.property    result
1  GSTQPCRNTFLLFLPALTIP  amyloid nucleation score  inactive
2  IVASYRYNYMYDLHLLSALQ  amyloid nucleation score  inactive
3  LIMVFVDSLRNRLELCFFQC  amyloid nucleation score  inactive
4  LSRIDRFTVGENMVTATFLI  amyloid nucleation score  inactive
5  KTRFLKYDNLSWTDKSNWVL  amyloid nucleation score  inactive
6  VFYVCFNAKLPLLGYFDLKV  amyloid nucleation score  inactive
7   YYVLFNAFQLIPLGWGNYS  amyloid nucleation score  inactive
8  RMLLRFYIATGYLWSIQNCR  amyloid nucleation score  inactive

---

- ASSAY EXPLANATION: amyloid nucleation score (Sup35N fusion, yeast selection) (log enrichment); library NNK1; higher = more nucleation; inactive = no reads after selection
Reported amyloid nucleation score values follow for various substances
REPORTED PROPERTY: amyloid nucleation score

> print(dat)
               substance         reported.property  numeric.value
 1  ELSMCYYWRKSYIQSLGIRW  amyloid nucleation score          0.733
 2        SRPQLDKTLFGLVA  amyloid nucleation score          0.771
 3  MDWNQGVAGATMIYLCFNNN  amyloid nucleation score           7.88
 4  YLILYPRASFKYAIILWSCF  amyloid nucleation score         -0.749
 5   WDLCISINYSVFLNLACSV  amyloid nucleation score           3.25
 6  SRRYLRVGCKVNVHTFGLYL  amyloid nucleation score         -0.502
 7  GMSCWGLCSYNTRAYRNNPT  amyloid nucleation score         -0.151
 8  TADFLCSINEAFSVFTLLRE  amyloid nucleation score           1.03
 9  VIYSSIHKLSDGDRVENPRS  amyloid nucleation score         -0.933
10  TSGLENVSIVNGLPGLDSLV  amyloid nucleation score           0.11
11  EDLRVTGAKGYGCAECRACV  amyloid nucleation score         -0.186
12  GWQRSRVAVAPVVVTQSCGV  amyloid nucleation score         -0.671
13   WSLVDDPLVFERLFWPCYQ  amyloid nucleation score          0.142
14  AVVKAVVNGRILFYRTREVS  amyloid nucleation score          0.226
15      MKAGFHYYLVMLVRKE  amyloid nucleation score          0.265
16  FCFLGRCEQHYYLEVHNGSE  amyloid nucleation score           -0.1
17  QWNEDLSLWPDLKYGHMLLS  amyloid nucleation score          0.052
18  NVLWIPSSGISSVRLEGIAM  amyloid nucleation score          0.393
19  GIAWALKLRLVDAYPGMSMS  amyloid nucleation score          0.168
20       DIFHSLILHMDMYEG  amyloid nucleation score          0.811
21  ASQRSQNCCIVESIDEVLFS  amyloid nucleation score           0.85
22         CMDKCVCERHPYL  amyloid nucleation score         -0.345
23  PRNPMRSESILFCGNFVGRK  amyloid nucleation score         -0.759

---

- ASSAY EXPLANATION: amyloid nucleation score (Sup35N fusion, yeast selection) (log enrichment); library NNK2; higher = more nucleation; inactive = no reads after selection
REPORTED PROPERTY: amyloid nucleation score

> print(dat)
    biopolymer.sequence    result
1  YLLLLIMDLFKGRACHPRHA  inactive
2            STMFSVNFST  inactive
3  CDFLLLKLFRNVLVWLVCSG  inactive
4         IVRNPKLMLSNGH     0.907
5            WCCPPHGRQP     0.876
6  WLPYTCNFVMTVSRYSSMRG  inactive
